Recorded values, source PubChem BioAssay.

Each item that follows carries a reported z-score.
- experimental details: MM1S myeloma cell viability, profiling panel, resazurin fluorescence, basal, 24 h, PK04 Diversity Set (AID 1174);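 note: MM1S multiple myeloma cell line; test concentration not given here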
- measurement conditions: higher = more signal, called active from +8 up or from −8 down
Activity calls are given as the source filed them.

compound | z-score
NC(=O)[C@@H]1[C@H]2C(=O)O[C@H](c3ccccc3)[C@H](c3ccccc3)N2[C@H](c2ccc(OCCO)cc2)[C@@]12C(=O)Nc1ccc(C#CCCO)cc12 | -0.729 (inactive)
COCCOC(=O)N1C(=O)[C@@]2(c3cc(C#CC4=CCCCC4)ccc31)[C@H](c1ccc(O)cc1)N1[C@H](c3ccccc3)[C@H](c3ccccc3)OC(=O)[C@H]1[C@@H]2C(=O)NC[C@H](O)c1ccccc1 | -2.48 (inactive)
C=CCNC(=O)[C@@H]1[C@H]2C(=O)O[C@H](c3ccccc3)[C@H](c3ccccc3)N2[C@H](c2ccc(O)cc2)[C@@]12C(=O)N(C(=O)OCCOC)c1ccc(C#CCCO)cc12 | -1.12 (inactive)
C=CCNC(=O)[C@H]1[C@@H]2C(=O)O[C@@H](c3ccccc3)[C@@H](c3ccccc3)N2[C@@H](c2ccc(O)cc2)[C@]12C(=O)N(C(=O)OCCOC)c1ccc(C#CCC(C(=O)OC)C(=O)OC)cc12 | -1.25 (inactive)
COc1ccc([Si](C)(C)[C@H]2[C@H](CCO)O[C@@]3(C(=O)N(Cc4ccc(N5C(=O)c6ccccc6Oc6ccccc65)cc4)c4ccccc43)[C@@H]2C)cc1 | -3.52 (inactive)
C=CCNC(=O)[C@H]1[C@@H]2C(=O)O[C@@H](c3ccccc3)[C@@H](c3ccccc3)N2[C@@H](c2ccc(OCCO)cc2)[C@]12C(=O)Nc1ccc(C#CCNC(N)=O)cc12 | 0.0869 (inactive)
CCCC=C(CCC)[C@@H](NS(=O)(=O)c1cccc2cccnc12)c1ccc(-c2ccccc2)cc1 | 1.02 (inactive)
COc1cc(NN2C(C(O)C3CCCCC3)C=CC3C(=O)N(c4ccccc4)C(=O)C32)cc(OC)c1OC (configuration not stated) | -1.62 (inactive)
COCC1=C2[C@@H](CCc3ccccc3)OB(O)C[C@@H]2[C@@H]2C(=O)N(C)C(=O)[C@@H]2C1 | -0.439 (inactive)
COc1ccc(C(O)C2C=CC3C(=O)N(c4ccccc4)C(=O)C3N2Nc2ccccc2)cc1 (configuration not stated) | -0.582 (inactive)
CC(C)[C@H]1NC(=O)[C@@]23C(=O)N[C@@H](Cc4ccccc4)C2[C@H](C)[C@@]2(C)O[C@H]2C3/C=C/CCC/C=C/CNC(=O)[C@H](Cc2ccccc2)NC1=O (some centres not stated) | -0.457 (inactive)
C=CCNC(=O)[C@H]1[C@@H]2C(=O)O[C@@H](c3ccccc3)[C@@H](c3ccccc3)N2[C@@H](c2ccc(OCCO)cc2)[C@]12C(=O)N(C(=O)OCCOC)c1ccc(C#Cc3ccc(OC)cc3)cc12 | 0.476 (inactive)
O=C1C2C=CC(C(O)c3ccco3)N(Nc3ccccc3)C2C(=O)N1c1ccccc1 (configuration not stated) | -0.321 (inactive)
CCCNC(=O)[C@@]1(Sc2ccc(C)cc2)CC(=O)N(C2CCCCC2)[C@@H]1c1ccc(CO)cc1I | 0.0674 (inactive)
C=C(/C(=C/C[C@H](OC(=O)c1ccncc1)c1cccc(OCCO)c1)c1cnc2ccccc2c1)C(C)C | -1.09 (inactive)
CN(C)C(=O)[C@@]1(Cc2ccccc2N=[N+]=[N-])N=C(c2ccc(OCCCO)cc2)O[C@H]1c1ccccc1 | -3.18 (inactive)
CC(=O)NCCCC[C@@H]1NC(=O)[C@H]2C[C@@H](C(=O)NCCCCCNC(=O)CS)[C@@H](c3cccc(OCCO)c3)N2C1=O | -0.0374 (inactive)
COc1cc2c(cc1O)C(c1cccs1)N(Cc1sc3ccccc3c1Cl)CC2 (configuration not stated) | -0.519 (inactive)
CC(C)C(=C=CC[C@@H](O)c1cccc(OCCO)c1)C[C@@H](O)c1ccccn1 | 0.642 (inactive)
COC(=O)C1N=C(c2ccc(OCCCO)cc2)N(c2ccccc2)O1 (configuration not stated) | -0.279 (inactive)
CCN(CC)c1ccc(N2CC=CC34O[C@@H]5/C=C\CCC(C)OC(=O)C5[C@H]3C(=O)N(C(C)CO)[C@@H]4C2=O)cc1 (some centres not stated) | 0.259 (inactive)
COc1ccc([Si](C)(C)[C@@H]2[C@@H](CC(=O)N3Cc4ccccc4C[C@H]3CO)O[C@]3(C(=O)N(c4ccccc4)c4ccccc43)[C@H]2C)cc1 | -2.64 (inactive)
CCOC(=O)C1=C[C@@H](C(C)(C)C)N(S(=O)(=O)c2ccc(C)cc2)[C@H]1c1ccccc1 | -0.562 (inactive)
CO[C@H]1O[C@H](CO)[C@@H](OC(=O)Nc2cccc(F)c2)[C@H](OC(=O)Nc2ccccc2-c2ccccc2)[C@H]1OC(=O)Nc1ccccc1-c1ccccc1 | -5.86 (inactive)
NCCCCCNC(=O)[C@@H]1C[C@@H]2C(=O)N3CCC[C@H]3C(=O)N2[C@@H]1c1ccc(O)cc1 | 0.422 (inactive)
C=CCNC(=O)[C@@H]1[C@H]2C(=O)O[C@H](c3ccccc3)[C@H](c3ccccc3)N2[C@H](c2ccc(O)cc2)[C@@]12C(=O)Nc1ccc(C#CCC(C(=O)OC)C(=O)OC)cc12 | -6.93 (inactive)
[N-]=[N+]=Nc1ccccc1C[C@]1(C(=O)NCc2ccccc2)COC(c2ccc(OCCCO)cc2)=N1 | -5.51 (inactive)
